tested on: A673/TR/shEF; experiment: cell viability (LOESS-normalised, relative to median of negative controls) (log2 ratio); higher = more viable cells (less compound effect), active = hit call of the paper (over 3 MAD below the median); settings: 0.25 µM; library screen: screen1; EWS-FLI1 expression: high (no doxycycline); treatment time: 72 h
Out of some 3,200 compounds screened, about 300 (9.4%) showed activity. The full list was thinned out, with actives kept by preference.
In this section, each of the compounds is paired with its reported cell viability (log2).
When you answer, write just the number.

Solved entries:
| compound | cell viability (log2) |
| --- | --- |
| COC(=O)C[C@H]1C(C)(C)[C@H](O)[C@@H]2CC3=C4CC(O)O[C@@H](c5ccoc5)[C@]4(C)CCC3[C@@]1(C)C2=O (some centres undefined) | 0.0798 |
| C[C@H](C[C@@H](O)[C@@H]1OC1(C)C)[C@@H]1CC[C@]2(C)C3=CC[C@H]4C(C)(C)C(=O)CC[C@]4(C)[C@H]3CC[C@@]12C | 0.0762 |
| CC1=C[C@@H]2[C@@H](CC1)[C@](C)(O)CC[C@H]2C(C)C | 0.0888 |
| CS(=O)(=O)CCCCN=C=S | 0.17 |
| CN(C)c1ccc(C(=C2C=CC(=[N+](C)C)C=C2)c2ccc(N(C)C)cc2)cc1 | 0.105 |
| CC(C)c1ccc2c(c1)CC[C@@]1(C)[C@](C)(C(N)=O)CCC[C@]21C | 0.0259 |

Ask: Quote cell viability (log2) reported for CC(C)CCC[C@@H](C)[C@H]1CC[C@H]2C3=CC[C@H]4C[C@@H](O)CC[C@]4(C)[C@H]3CC[C@]12C please.
Result: -0.0717

Ask: Quote cell viability (log2) reported for Clc1ccc(CN2CCN(Cc3c[nH]c4ccccc34)CC2)cc1 please.
Result: 0.142

Ask: Quote cell viability (log2) reported for O=C1C=CC(=C(c2ccc(O)cc2)c2ccc(O)cc2)C=C1 please.
Result: 0.083
